- MEASUREMENT_NOTES: Biodistribution in Sprague-Dawley rat testis assessed per gram of tissue at 1 MBq, iv after 4 hrs
- Format: ADME, organism-based
- MEASUREMENT_CONTEXT: in vivo
READOUT_NAME: Drug uptake (%ID)
Numeric only. Scale: %ID

COMPOUND | Drug uptake (%ID)
CCN(CC)C(=O)Cc1c(-c2ccc(OCCC[18F])cc2)nn2c(C)cc(C)nc12 | 0.43
CCN(CC)C(=O)Cc1c(-c2ccc(OCC[18F])cc2)nn2c(C)cc(C)nc12 [DPA-714 F-18] | 0.35
CCN(CC)C(=O)Cc1c(-c2ccc(OCCC[18F])cc2)nc2ccc(Cl)cn12 | 0.53

## Task # lookup: Drug uptake of CCN(CC)C(=O)Cc1c(-c2ccc(OCC[18F])cc2)nc2ccc(Cl)cn12
## Result 0.42
